- testName: chemical genetic growth profiling, strain panel (AID 1159580);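 note: tested at 20 µM; growth read once vehicle control cultures reached saturation at 30 °C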
- conditionDetails: S. cerevisiae deletion strains, growth OD, locus YLR258W, strain gsy2, stronger effect = lower value
Hit rate of the full screen: of about 5,500 compounds, about 2,000 (36%) were called active. Inconclusive results (about 18%) are left out. The list shows a part of the results.
Kindly apply the following: satisfied if normalized growth is less than 1, not satisfied in every other case.

{"columns": ["compound", "category"],
 "data": [
  ["O=C(O)c1ccccc1Nc1cccc(C(F)(F)F)c1", "satisfied"],
  ["CC(=O)c1c(O)c(C)c(O)c2c1OC1=CC(=O)C(C(C)=O)C(=O)C12C (configuration not stated)", "satisfied"],
  ["C=CCC1(C(C)CCC)C(=O)N=C(S)NC1=O (configuration not stated)", "satisfied"],
  ["O=[N+]([O-])c1cc(O)c(O)c([N+](=O)[O-])c1", "not satisfied"],
  ["Cc1c(Nc2ncccc2C(=O)O)cccc1C(F)(F)F", "satisfied"]
]}

API: the following record is the query input.
Req: Quick check: does O=[N+]([O-])c1ccc(O)c([N+](=O)[O-])c1 have normalized growth under 1?
Resp: satisfied
